Where do these numbers come from? They come from PubChem BioAssay (NCI).

Readings of growth inhibition for the listed molecules
test: NCI Yeast Anticancer Drug Screen. Data for the rad50 strain (AID 155);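 also: 0% = growth of vehicle-only cultures of the same strain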; conditions: S. cerevisiae rad50 strain growth inhibition; at 100.0 µM; hits give high values
About 79,000 compounds went through this panel and 15% of them were active in at least one assay; those are over-represented in the sample as a whole.
RECORDED_METRIC: growth inhibition (%)

[
  {
    "MOLECULE": "CCCCCC(=O)c1ccc(O)cc1O",
    "QUANTITATIVE_RESULT": 97
  },
  {
    "MOLECULE": "N#CC(=C1C=CC(=NO)C=C1)c1ccccc1",
    "QUANTITATIVE_RESULT": 99
  },
  {
    "MOLECULE": "N#CC(=S)Nc1cccc(Cl)c1",
    "QUANTITATIVE_RESULT": 51
  },
  {
    "MOLECULE": "CCC(c1ccc(O)cc1)C(CC)c1ccc(OCCN)cc1 (stereo not given)",
    "QUANTITATIVE_RESULT": 88
  },
  {
    "MOLECULE": "O=C1C=CC(=O)N1c1ccc2c(c1)OCO2",
    "QUANTITATIVE_RESULT": 99
  },
  {
    "MOLECULE": "CN(C)CC1CCCc2ccccc2C1=O (stereo not given)",
    "QUANTITATIVE_RESULT": 91
  },
  {
    "MOLECULE": "COc1ccc(S(=O)(=O)N/N=C\\c2cc([N+](=O)[O-])cc(I)c2O)c(OC)c1OC",
    "QUANTITATIVE_RESULT": 95
  },
  {
    "MOLECULE": "CCOC(=O)[C@]1(Br)CC[C@@]1(Br)C(=O)OCC",
    "QUANTITATIVE_RESULT": 98
  },
  {
    "MOLECULE": "Cc1c2cc[n+](CCN3CCCCC3)cc2c(C)c2c1[nH]c1ccc(O)cc12",
    "QUANTITATIVE_RESULT": 98
  },
  {
    "MOLECULE": "Oc1ccccc1N=Cc1ccc(Cl)cc1",
    "QUANTITATIVE_RESULT": 82
  }
]

----------
assay: NCI Yeast Anticancer Drug Screen. Data for the sgs1 strain (AID 173);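 also: 0% = growth of vehicle-only control cultures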; conditions: S. cerevisiae sgs1 mutant, at 100.0 µM
This is part of a sample that, as a whole, favours compounds with a hit. Of some 79,000 tested, about 15% had one in any assay. The source made the active and inactive calls. Cut-off read from the data, not from the text of the source: active = growth inhibition above about 70%; inactive = the rest.
Outcome codes: TRUE (active), FALSE (inactive)

[
  {
    "COMPOUND": "Cc1ccc(S(=O)(=O)Nc2ccc3c(c2)C(O)c2ccccc2-3)cc1 (stereo not given)",
    "CAT": "FALSE"
  },
  {
    "COMPOUND": "Clc1c(Cl)c(Cl)c2n[nH]nc2c1Cl",
    "CAT": "TRUE"
  },
  {
    "COMPOUND": "COc1ccc(/C(C#N)=C/c2ccc(OC)c(OC)c2)cc1",
    "CAT": "FALSE"
  },
  {
    "COMPOUND": "CC(=O)O[C@H]1C(=O)[C@@]2(C)[C@H]([C@H](OC(=O)c3ccccc3)[C@]3(O)C[C@H](OC(=O)[C@H](O)[C@@H](NC(=O)c4ccccc4)c4ccccc4)C(C)=C1C3(C)C)[C@]1(OC(C)=O)CO[C@@H]1C[C@@H]2O",
    "CAT": "FALSE"
  },
  {
    "COMPOUND": "CC(=O)CC(=O)/C=C/c1cccs1",
    "CAT": "TRUE"
  }
]

----------
This listing pairs compounds with measured growth inhibition.
experiment: NCI Yeast Anticancer Drug Screen. Data for the wt1 strain (AID 149);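 also: 0% = growth of vehicle-treated wt1 cultures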; settings: S. cerevisiae wt1 strain (SPY 50644) growth inhibition; at 3.7 µM; hits give high values
The panel holds about 79,000 compounds, 15% with a hit somewhere; the sample as a whole holds those more often.
RECORDED_METRIC: growth inhibition (%)

[
  {
    "COMPOUND": "CCCCCCCCCCCCCCCCNC(=O)/C(=C\\c1ccc(Cl)c(Cl)c1)NC(=O)c1ccccc1",
    "UNIT_ABBREV": "%",
    "QUANTITATIVE_RESULT": -2
  },
  {
    "COMPOUND": "CC1=CC2C(C(C)C)CC1C1C(=O)OC(=O)C21 (configuration not stated)",
    "UNIT_ABBREV": "%",
    "QUANTITATIVE_RESULT": 0
  },
  {
    "COMPOUND": "O=[N+]([O-])c1cccc2nc3ccccc3c(NCCc3cccc[n+]3[O-])c12",
    "UNIT_ABBREV": "%",
    "QUANTITATIVE_RESULT": 1
  },
  {
    "COMPOUND": "CCN(CC)CCNC(=O)c1nn(-c2ccc(Cl)cc2)c2c1CCc1cc(OC)ccc1-2",
    "UNIT_ABBREV": "%",
    "QUANTITATIVE_RESULT": 22
  },
  {
    "COMPOUND": "COc1ccc(C(C#N)=C2C=CC(=NO)C=C2)cc1",
    "UNIT_ABBREV": "%",
    "QUANTITATIVE_RESULT": -2
  },
  {
    "COMPOUND": "O=C(/C=N/O)Nc1cc(Cl)c(Cl)cc1Cl",
    "UNIT_ABBREV": "%",
    "QUANTITATIVE_RESULT": -35
  },
  {
    "COMPOUND": "CN(N=O)C(=O)N[C@@H](C=O)[C@@H](O)[C@H](O)[C@H](O)CO",
    "UNIT_ABBREV": "%",
    "QUANTITATIVE_RESULT": -1
  },
  {
    "COMPOUND": "CCNc1ccc2c(c1)C(=O)N(OS(C)(=O)=O)C2=O",
    "UNIT_ABBREV": "%",
    "QUANTITATIVE_RESULT": 5
  },
  {
    "COMPOUND": "O=C1C(Cl)=C(Cl)C(Cl)(Cl)C(Cl)C1(Cl)Cl (configuration not stated)",
    "UNIT_ABBREV": "%",
    "QUANTITATIVE_RESULT": 5
  },
  {
    "COMPOUND": "Nc1ccc(S(=O)(=O)Nc2ccc(Nc3c4ccccc4nc4ccccc34)cc2)cc1",
    "UNIT_ABBREV": "%",
    "QUANTITATIVE_RESULT": 19
  },
  {
    "COMPOUND": "O=[N+]([O-])c1c(/C=N/Nc2ccccc2)oc(-c2ccc3c(c2)OCO3)c1-c1ccc2c(c1)OCO2",
    "UNIT_ABBREV": "%",
    "QUANTITATIVE_RESULT": 0
  },
  {
    "COMPOUND": "S=c1cn[nH]c2ccc(Br)cc12",
    "UNIT_ABBREV": "%",
    "QUANTITATIVE_RESULT": -6
  }
]

----------
Test: NCI Yeast Anticancer Drug Screen. Data for the rad18 strain (AID 177)
Conditions: S. cerevisiae rad18 mutant growth inhibition; at 1.2 µM; hits give high values
Protocol: Growth inhibition of yeast strains with defined genetic alterations is measured as a screen for potential anti-cancer activity. Selected strains with alterations in DNA damage repair or cell cycle control were exposed to compounds and growth inhibition was measured relative to vehicle treated controls. The strain used in this assay is rad18
About 79,000 compounds went through this panel and 15% of them were active in at least one assay; those are over-represented in the sample as a whole.
RECORDED_METRIC: growth inhibition (%)

[
  {
    "COMPOUND": "COc1cc(N(C)C)ccc1/C=C\\c1ccnc2ccccc12",
    "QUANTITATIVE_RESULT": -4
  },
  {
    "COMPOUND": "CCOC(=O)C(NC(=O)CC)(N1CCN(c2cc3c(cc2F)c(=O)c(C(=O)O)cn3C2CC2)CC1)C(F)(F)F (stereo not drawn)",
    "QUANTITATIVE_RESULT": -2
  },
  {
    "COMPOUND": "COc1cc(NCc2ccc3nc(N)nc(N)c3c2C)cc(OC)c1OC",
    "QUANTITATIVE_RESULT": -6
  },
  {
    "COMPOUND": "Cc1c(-c2ccccc2)[nH]c2ccccc12",
    "QUANTITATIVE_RESULT": 3
  },
  {
    "COMPOUND": "CN(C)CC1CCCc2ccccc2C1=O (stereo not drawn)",
    "QUANTITATIVE_RESULT": -14
  },
  {
    "COMPOUND": "CCC(C)(c1ccc(O)c(C)c1)c1ccc(O)c(C)c1",
    "QUANTITATIVE_RESULT": -55
  },
  {
    "COMPOUND": "N#CSC1CCCCNC1=O (stereo not drawn)",
    "QUANTITATIVE_RESULT": 12
  },
  {
    "COMPOUND": "Clc1nc(C(Cl)Cl)nc2sc3c(c12)CCCC3",
    "QUANTITATIVE_RESULT": 12
  },
  {
    "COMPOUND": "Cc1cc(OCc2ccccc2)ccc1[N+](=O)[O-]",
    "QUANTITATIVE_RESULT": -15
  },
  {
    "COMPOUND": "CC(C)(C)[OH+][O-].[O-]c1ccc(Cl)cc1C=Nc1ccc(Cl)cc1[O-].[O]=[V]",
    "QUANTITATIVE_RESULT": 4
  },
  {
    "COMPOUND": "OCCNCCOc1ccc(/C(=C(/Cl)c2ccccc2)c2ccccc2)cc1",
    "QUANTITATIVE_RESULT": -8
  },
  {
    "COMPOUND": "CC(C)c1[nH]nc(C(N)=O)c1N=NN(C)C",
    "QUANTITATIVE_RESULT": 3
  },
  {
    "COMPOUND": "CN[C@@H]1C[C@H]2O[C@@](C)([C@@H]1OC)n1c3ccccc3c3c4c(c5c6ccccc6n2c5c31)C(=O)N[C@@H]4O",
    "QUANTITATIVE_RESULT": -8
  }
]
